tested_on: HLA-A*0201 molecule on T2 cells (human (endogenous in T2) | human)
procedure_text: flow cytometry on cells; T2 binding assay: T2 cells (1 x 10^6 cells/ml) with peptide (50 μg/ml) and 3 μg/ml human β2-M in serum-free RPMI 1640, 18 h, 37°C; surface HLA-A2 stained with BB7.2 PE-Cyanine7; fluorescence index (FI); FI > 1.5 classed as high affinity
No end group written: not given here.
Each entry below carries its reported FI (fluorescence index).
property_measured: FI (fluorescence index)

> print(dat)
                                     binder  recorded.measurement
1              YLIRRIEEL [MTA1 peptide P22]                  2.08
2             FLSRQLESL [MTA1 peptide P109]                  2.61
3  ILIGETIKI (not fully specified) [cyclooxygenase-2 (COX-2) 321-329 peptide]                  1.91
4             TLLNETESL [MTA1 peptide P129]                  1.28
5              ALADKHATL [MTA1 peptide P57]                  1.56
6             YQADITDLL [MTA1 peptide P173]                  0.22
